Biological target: UniProtKB Q16790
pKi: −log10 of the molar value.
Entry flag: true if pKi reaches 9; false if it does not.

Input line: Does pKi meet or surpass 9 for NS(=O)(=O)c1ccc(-n2nc(-c3ccncc3)ccc2=O)cc1 ?
Output line: false

Input line: Does pKi meet or surpass 9 for NS(=O)(=O)c1ccc(-n2nc(-c3ccccc3O)ccc2=O)cc1 ?
Output line: true

Input line: Does pKi meet or surpass 9 for NS(=O)(=O)c1ccc(-n2ncccc2=O)cc1 ?
Output line: false

Input line: Does pKi meet or surpass 9 for NS(=O)(=O)c1ccc(N2N=C(c3ccccc3)CCC2=O)cc1 ?
Output line: false

Input line: Does pKi meet or surpass 9 for NS(=O)(=O)c1ccc(-n2ncc(NCCCN3CCOCC3)c(Cl)c2=O)cc1 ?
Output line: false

----------
Consider the following compounds; for each one, report its Ki.

Input line: Find the measured Ki of NS(=O)(=O)c1ccc(-n2ncc(N3CCN(c4ccccn4)CC3)c(Cl)c2=O)cc1 with UniProt:P00915 as test system.
Output line: 676 nM

Input line: Find the measured Ki of CCN1CCN(c2cnn(-c3ccc(S(N)(=O)=O)cc3)c(=O)c2)CC1 with UniProt:P00915 as test system.
Output line: 311 nM

Input line: Find the measured Ki of COc1ccc(C2=NN(c3ccc(S(N)(=O)=O)cc3)C(=O)CC2)cc1 with UniProt:P00915 as test system.
Output line: 92.7 nM

Input line: Find the measured Ki of NS(=O)(=O)c1ccc(N2N=C(c3ccccc3)CCC2=O)cc1 with UniProt:P00915 as test system.
Output line: 187 nM

Input line: Find the measured Ki of NS(=O)(=O)c1ccc(-n2ncc(N3CCc4ccccc4C3)c(Cl)c2=O)cc1 with UniProt:P00915 as test system.
Output line: 738 nM

----------
Test system: ARPE-19
Test: Cytotoxicity against human ARPE19 cells assessed as reduction in cell viability incubated for 48 hrs under hypoxia condition by MTT assay relative to control
Assay type: cell-based
Conditions: arpe-19, 48 h
endpoint label: Activity

{"columns": ["molecular string", "endpoint label", "recorded measurement"],
 "data": [
  ["CCN1CCN(c2cnn(-c3ccc(S(N)(=O)=O)cc3)c(=O)c2Cl)CC1", "Activity", "Non-Toxic"],
  ["COc1ccc(C2=NN(c3ccc(S(N)(=O)=O)cc3)C(=O)CC2)cc1", "Activity", "Dose-dependent effect"],
  ["NS(=O)(=O)c1ccc(-n2ncc(N3CCCCCC3)c(Cl)c2=O)cc1", "Activity", "Dose-dependent effect"],
  ["NS(=O)(=O)c1ccc(-n2ncccc2=O)cc1", "Activity", "Non-Toxic"]
]}

----------
Consider the following molecules; for each one, report its Ki.
The answer is to be given in µM; state only the numeric part.

Input line: Find the measured Ki of NS(=O)(=O)c1ccc(-n2nc(-c3ccc4c(c3)OCO4)ccc2=O)cc1 with Carbonic anhydrase 1 (Homo sapiens) as test system.
Sequence (P00915 whole entry): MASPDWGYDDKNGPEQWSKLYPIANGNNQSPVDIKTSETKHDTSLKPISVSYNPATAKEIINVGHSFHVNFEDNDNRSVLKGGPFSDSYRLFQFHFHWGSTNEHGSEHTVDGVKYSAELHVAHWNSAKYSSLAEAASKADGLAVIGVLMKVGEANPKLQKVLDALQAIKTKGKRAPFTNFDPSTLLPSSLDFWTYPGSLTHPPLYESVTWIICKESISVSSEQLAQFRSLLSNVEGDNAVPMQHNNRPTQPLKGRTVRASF
Output line: 0.099

Input line: Find the measured Ki of NS(=O)(=O)c1ccc(-n2ncc(N3CCOCC3)cc2=O)cc1 with Carbonic anhydrase 1 (Homo sapiens) as test system.
Output line: 0.292

Input line: Find the measured Ki of NS(=O)(=O)c1ccc(-n2ncccc2=O)cc1 with Carbonic anhydrase 1 (Homo sapiens) as test system.
Output line: 0.32

Input line: Find the measured Ki of COc1ccc2cnn(-c3ccc(S(N)(=O)=O)cc3)c(=O)c2c1OC with Carbonic anhydrase 1 (Homo sapiens) as test system.
Output line: 0.0907

----------
Target: Carbonic anhydrase 12 (Homo sapiens, UniProt O43570)
Sequence (O43570 whole entry): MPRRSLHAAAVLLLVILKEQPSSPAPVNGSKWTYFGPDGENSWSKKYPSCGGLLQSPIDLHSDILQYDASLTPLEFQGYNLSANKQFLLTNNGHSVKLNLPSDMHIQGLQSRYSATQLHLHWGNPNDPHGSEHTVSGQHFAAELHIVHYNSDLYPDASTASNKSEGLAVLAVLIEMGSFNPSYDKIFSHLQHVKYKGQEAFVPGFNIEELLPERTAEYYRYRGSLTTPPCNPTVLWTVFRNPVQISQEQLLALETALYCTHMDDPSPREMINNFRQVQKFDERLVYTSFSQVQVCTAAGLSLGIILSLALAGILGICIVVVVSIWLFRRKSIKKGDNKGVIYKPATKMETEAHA
endpoint label: Ki (nM)
The answer is to be given in nM; state only the numeric part.

Input line: Please indicate Ki recorded for NS(=O)(=O)c1ccc(S(=O)(=O)Nc2cccc3c(Cl)c[nH]c23)cc1
Output line: 3

----------
Target: Carbonic anhydrase 9 (Homo sapiens, UniProt Q16790)
Lab note - cut at 0.6 nM for Ki: Yes if strictly below, No if not.

Input line: # TODO verify Ki < 0.6 nM strictly for this compound: NS(=O)(=O)c1ccc(-n2ncc(N3CCc4ccccc4C3)c(Cl)c2=O)cc1
Output line: No

Input line: # TODO verify Ki < 0.6 nM strictly for this compound: NS(=O)(=O)c1ccc(-n2nc(-c3ccc4c(c3)OCO4)ccc2=O)cc1
Output line: No

Input line: # TODO verify Ki < 0.6 nM strictly for this compound: NS(=O)(=O)c1ccc(-n2ncc(N3CCCCCC3)cc2=O)cc1
Output line: Yes

Input line: # TODO verify Ki < 0.6 nM strictly for this compound: COc1ccc(C2=NN(c3ccc(S(N)(=O)=O)cc3)C(=O)CC2)cc1
Output line: No

Input line: # TODO verify Ki < 0.6 nM strictly for this compound: NS(=O)(=O)c1ccc(-n2ncc3ccccc3c2=O)cc1
Output line: Yes

----------
Test system: ARPE-19
Experiment: Cytotoxicity against human ARPE19 cells assessed as reduction in cell viability incubated for 48 hrs under normoxic condition by MTT assay relative to control
Format: cell-based
Conditions: arpe-19, 48 h
endpoint label: Activity

Worked cases, Activity given:
{"columns": ["molecular string", "Activity"],
 "data": [
  ["NS(=O)(=O)c1ccc(-n2ncccc2=O)cc1", "Non-Toxic"],
  ["COc1ccc(C2=NN(c3ccc(S(N)(=O)=O)cc3)C(=O)CC2)cc1", "Dose-dependent effect"],
  ["NS(=O)(=O)c1ccc(-n2ncc(N3CCOCC3)c(Cl)c2=O)cc1", "Non-Toxic"],
  ["CCN1CCN(c2cnn(-c3ccc(S(N)(=O)=O)cc3)c(=O)c2Cl)CC1", "Non-Toxic"]
]}

Input line: Please indicate Activity recorded for NS(=O)(=O)c1ccc(-n2ncc(N3CCCCCC3)c(Cl)c2=O)cc1
Output line: Dose-dependent effect

----------
Consider the following compounds; for each one, report its pKi.
Target: Carbonic anhydrase 12 (Homo sapiens, UniProt O43570)
Test: Inhibition of membrane bound human CA 12 preincubated for 15 mins by phenol red dye-based stopped-flow CO2 hydration assay
Schema: pKi number; meaning minus log10 of the concentration expressed in molar units.

Input line: Please indicate pKi recorded for COc1ccc(C2=NN(c3ccc(S(N)(=O)=O)cc3)C(=O)CC2)cc1
Output line: 8.00

Input line: Please indicate pKi recorded for NS(=O)(=O)c1ccc(-n2nc(-c3ccncc3)ccc2=O)cc1
Output line: 8.06

Input line: Please indicate pKi recorded for CCN1CCN(c2cnn(-c3ccc(S(N)(=O)=O)cc3)c(=O)c2)CC1
Output line: 7.60

Input line: Please indicate pKi recorded for Cc1cc(-c2cccnc2)nn(-c2ccc(S(N)(=O)=O)cc2)c1=O
Output line: 8.06

Input line: Please indicate pKi recorded for NS(=O)(=O)c1ccc(-n2ncc(NCc3ccccc3)c(Cl)c2=O)cc1
Output line: 8.03

Input line: Please indicate pKi recorded for NS(=O)(=O)c1ccc(-n2nc(-c3ccccc3O)ccc2=O)cc1
Output line: 8.03

Input line: Please indicate pKi recorded for NS(=O)(=O)c1ccc(-n2ncc(N3CCc4ccccc4C3)c(Cl)c2=O)cc1
Output line: 7.07

Input line: Please indicate pKi recorded for NS(=O)(=O)c1ccc(-n2nc(-c3ccc4c(c3)OCO4)ccc2=O)cc1
Output line: 7.20

Input line: Please indicate pKi recorded for NS(=O)(=O)c1ccc(-n2ncc(N3CCCCCC3)cc2=O)cc1
Output line: 8.20

Input line: Please indicate pKi recorded for CC1=NN(c2ccc(S(N)(=O)=O)cc2)C(=O)CC1
Output line: 7.51

Input line: Please indicate pKi recorded for NS(=O)(=O)c1ccc(-n2ncccc2=O)cc1
Output line: 7.09

Input line: Please indicate pKi recorded for NS(=O)(=O)c1ccc(N2N=C(c3ccccc3)CCC2=O)cc1
Output line: 7.65

Input line: Please indicate pKi recorded for CCN1CCN(c2cnn(-c3ccc(S(N)(=O)=O)cc3)c(=O)c2Cl)CC1
Output line: 8.14

Input line: Please indicate pKi recorded for Cc1nn(-c2ccc(S(N)(=O)=O)cc2)c(=O)c2ccccc12
Output line: 8.05

Input line: Please indicate pKi recorded for NS(=O)(=O)c1ccc(-n2ncc(Cl)c(Cl)c2=O)cc1
Output line: 8.00

Input line: Please indicate pKi recorded for NS(=O)(=O)c1ccc(-n2ncc3ccccc3c2=O)cc1
Output line: 7.30

Input line: Please indicate pKi recorded for NS(=O)(=O)c1ccc(-n2ncc(N3CCOCC3)c(Cl)c2=O)cc1
Output line: 7.44

Input line: Please indicate pKi recorded for COc1ccc2cnn(-c3ccc(S(N)(=O)=O)cc3)c(=O)c2c1OC
Output line: 7.18

Input line: Please indicate pKi recorded for NS(=O)(=O)c1ccc(-n2ncc(NCCCN3CCOCC3)c(Cl)c2=O)cc1
Output line: 8.00

Input line: Please indicate pKi recorded for NS(=O)(=O)c1ccc(-n2ncc(N3CCN(c4ccccn4)CC3)c(Cl)c2=O)cc1
Output line: 6.98

Input line: Please indicate pKi recorded for NS(=O)(=O)c1ccc(-n2ncc(N3CCCCCC3)c(Cl)c2=O)cc1
Output line: 8.08

Input line: Please indicate pKi recorded for NS(=O)(=O)c1ccc(-n2ncc(N3CCOCC3)cc2=O)cc1
Output line: 8.01

Input line: Please indicate pKi recorded for NS(=O)(=O)c1ccc(N2N=C(c3ccc(Cl)c(Cl)c3)CCC2=O)cc1
Output line: 7.17
